experiment: Human Liver Microsomal Stability (Test C); format: in vitro ADME; conditions: human, liver microsomes
Here the recorded microsomal CLint is given for each entry.
Response body: numeric value in µL/min/mg, unit text excluded.

Molecule	Unit string	microsomal CLint
COc1cc(F)c(-c2ccc(CCC(=O)O)cn2)cc1C(=O)N[C@@H]1[C@H]2CC[C@H](C2)[C@@H]1C(=O)Nc1cccc(S(=O)(=O)C(F)(F)F)c1 [Example 242]	µL/min/mg	110
COc1cc(F)c(O[C@H]2CC[C@@H](C(=O)O)CC2)cc1C(=O)N[C@@H]1[C@H]2CC[C@H](C2)[C@@H]1C(=O)Nc1ccccc1 [Example 201]	µL/min/mg	23
COc1cc(C#N)c(O[C@H]2CC[C@@](C)(C(=O)O)CC2)cc1C(=O)N[C@@H]1[C@H]2CC[C@H](C2)[C@@H]1C(=O)N[C@]12CC3CC(C[C@@](O)(C3)C1)C2 [Example 113]	µL/min/mg	11

Now for a further molecule.
Report measured microsomal CLint; entry is COc1cc(C#N)c(O[C@H]2CC[C@@](C)(C(=O)O)CC2)cc1C(=O)N[C@@H]1[C@H]2CC[C@H](C2)[C@@H]1C(=O)NC1(C2CC2)CC1 [Example 112]
6.8

---

Here the recorded pEC50 is given for each entry.
target: human RXFP1 (Homo sapiens, UniProt Q9HBX9); assay: RXFP1 Hu cAMP (Test A); type: cell-based; design: expressed in transfected cells; host or cells: Jump-In T-REx CHO-K1 cells (ThermoFisher), induced with 10 ng/ml doxycycline for 24 h; conditions: RXFP1 Hu cAMP; read-out: Test A EC50
Sequence (Q9HBX9 whole entry): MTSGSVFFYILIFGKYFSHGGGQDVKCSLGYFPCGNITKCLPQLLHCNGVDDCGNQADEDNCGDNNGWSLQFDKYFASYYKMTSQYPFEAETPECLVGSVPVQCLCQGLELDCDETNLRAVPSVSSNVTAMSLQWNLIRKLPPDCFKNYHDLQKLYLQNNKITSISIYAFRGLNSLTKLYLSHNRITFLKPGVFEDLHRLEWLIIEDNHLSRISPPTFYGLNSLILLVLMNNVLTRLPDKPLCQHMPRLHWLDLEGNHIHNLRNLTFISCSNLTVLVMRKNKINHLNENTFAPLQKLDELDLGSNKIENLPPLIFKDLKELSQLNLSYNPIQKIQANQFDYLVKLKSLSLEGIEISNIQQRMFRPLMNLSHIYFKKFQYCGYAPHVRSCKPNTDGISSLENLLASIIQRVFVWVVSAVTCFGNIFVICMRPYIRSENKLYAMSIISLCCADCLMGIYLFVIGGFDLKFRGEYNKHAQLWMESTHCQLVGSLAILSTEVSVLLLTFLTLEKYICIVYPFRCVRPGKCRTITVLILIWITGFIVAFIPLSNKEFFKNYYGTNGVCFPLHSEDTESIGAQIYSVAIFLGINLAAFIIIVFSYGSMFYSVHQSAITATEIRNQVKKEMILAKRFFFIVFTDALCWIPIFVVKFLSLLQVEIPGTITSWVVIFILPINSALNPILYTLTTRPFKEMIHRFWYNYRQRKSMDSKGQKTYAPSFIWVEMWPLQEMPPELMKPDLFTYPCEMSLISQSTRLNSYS
Friendly reminder that pEC50 comes from taking -log10 of the concentration in mol/L.

Worked cases, pEC50 given:
Compound	pEC50
COc1cc(F)c(O[C@H]2CC[C@@](C)(C(=O)O)CC2)cc1C(=O)N[C@@H]1[C@H]2CC[C@H](C2)[C@@H]1C(=O)NC(C)(C)C	6.60
CCC(CC)[C@@H](C)NC(=O)[C@H]1[C@@H]2CC[C@@H](C2)[C@H]1NC(=O)c1cc(O[C@H]2CC[C@@](C)(C(=O)O)CC2)c(F)cc1OC (single isomer, unassigned)	5.89
COc1cc(C#N)c(O[C@H]2CC[C@@](C)(C(=O)O)CC2)cc1C(=O)N[C@H]1C2CCC(CC2)[C@H]1C(=O)NCC1(C)CCC1 (relative stereo)	8.51
COc1cc(F)c(-c2ccc(C(=O)O)cc2)cc1C(=O)N[C@H]1[C@@H](C(=O)Nc2cccc(S(=O)(=O)C(F)(F)F)c2)[C@@H]2C=C[C@H]1C2 (racemic) [Example 224]	6.72
CCC(CC)CNC(=O)[C@H]1[C@@H]2CC[C@@H](C2)[C@H]1NC(=O)c1cc(O[C@H]2CC[C@@H](C(=O)O)CC2)c(F)cc1OC	5.85
COc1cc(F)c(O[C@H]2CC[C@@H](C(=O)O)CC2)cc1C(=O)N[C@@H]1[C@H]2CC[C@H](C2)[C@@H]1C(=O)Nc1cccc(OC(F)F)c1	6.08
COc1cc(F)c(-c2ccc(CCC(=O)O)cc2)cc1C(=O)N[C@H]1[C@@H](C(=O)Nc2cccc(S(=O)(=O)C(F)(F)F)c2)[C@@H]2C=C[C@H]1C2 (racemic)	6.66
COc1cc(F)c(-c2ccc(CCC(=O)O)cc2)cc1C(=O)N[C@@H]1[C@H]2CC[C@H](C2)[C@@H]1C(=O)Nc1cccc(S(=O)(=O)C(F)(F)F)c1	7.00
COc1cc(F)c(O[C@H]2CC[C@@](C)(C(=O)O)CC2)cc1C(=O)N[C@@H]1[C@H]2CC[C@H](C2)[C@@H]1C(=O)Nc1ccc(F)c(S(F)(F)(F)(F)F)c1	9.39

Now for a further compound.
Report measured pEC50; entry is COc1cc(F)c(O[C@H]2CC[C@@](C)(C(=O)O)CC2)cc1C(=O)Nc1ccc(C)cc1C(=O)NCC1(C)CCC1
6.68
